Reported phosphorylation enrichment by item:
TGT: Fyn (UniProt P06241)
Sequence (P06241 whole entry, looked up): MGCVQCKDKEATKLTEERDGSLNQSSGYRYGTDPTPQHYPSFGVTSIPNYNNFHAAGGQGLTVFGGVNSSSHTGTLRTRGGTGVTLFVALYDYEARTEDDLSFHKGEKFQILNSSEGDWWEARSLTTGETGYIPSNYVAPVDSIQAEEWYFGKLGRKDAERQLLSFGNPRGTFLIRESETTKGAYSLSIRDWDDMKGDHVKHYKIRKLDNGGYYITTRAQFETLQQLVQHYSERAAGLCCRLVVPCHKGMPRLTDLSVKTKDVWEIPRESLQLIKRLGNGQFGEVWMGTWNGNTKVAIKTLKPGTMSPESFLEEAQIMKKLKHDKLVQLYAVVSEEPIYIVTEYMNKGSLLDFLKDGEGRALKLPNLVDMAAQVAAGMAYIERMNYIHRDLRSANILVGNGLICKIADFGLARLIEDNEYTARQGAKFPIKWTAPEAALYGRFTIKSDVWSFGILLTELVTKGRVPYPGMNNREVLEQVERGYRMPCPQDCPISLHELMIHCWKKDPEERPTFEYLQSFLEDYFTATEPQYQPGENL
PROTOCOL_TEXT: phosphorylation enrichment, bacterial display (enrichment ratio); higher = better substrate or ligand; peptides without Tyr show the background;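 note: 11-residue human phosphosite peptides and single-mutation variants displayed on the E. coli surface, counted by deep sequencing, each peptide's frequency after selection divided by its frequency in the unselected input library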;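 note: frequency after pTyr selection over input frequency; kinase dosed for 20-30% of maximal phosphorylation in three min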

{"CHAIN": "FEHVGYTTLNR [CHN1_Y148_YF]", "TGT": "Fyn (UniProt P06241)", "phosphorylation enrichment": 0.448}
{"CHAIN": "TNYCLYLRSLE [MTM1_Y71_R69C]", "TGT": "Fyn (UniProt P06241)", "phosphorylation enrichment": 0.545}
{"CHAIN": "EQKRFYNAMKK [SCN5A_Y1495_K1493R_YF]", "TGT": "Fyn (UniProt P06241)", "phosphorylation enrichment": 0.363}
{"CHAIN": "GHPYAYDWISI [BEST1_Y227_L224P]", "TGT": "Fyn (UniProt P06241)", "phosphorylation enrichment": 0.929}
{"CHAIN": "LIPIKYKAMKK [MYD88_Y257]", "TGT": "Fyn (UniProt P06241)", "phosphorylation enrichment": 0.489}
{"CHAIN": "CCKNRYDKDKP [THAP1_Y14_G9C]", "TGT": "Fyn (UniProt P06241)", "phosphorylation enrichment": 0.33}
{"CHAIN": "NVFGNYNQQPS [HNRNPA2B1_Y306_D302V]", "TGT": "Fyn (UniProt P06241)", "phosphorylation enrichment": 0.401}
{"CHAIN": "IEEGTYGVVYR [CDK11B_Y449]", "TGT": "Fyn (UniProt P06241)", "phosphorylation enrichment": 8.95}
{"CHAIN": "RASSSYRETPS [SORBS1_Y79]", "TGT": "Fyn (UniProt P06241)", "phosphorylation enrichment": 0.655}
{"CHAIN": "SSAAGYACLAY [MVD_Y131]", "TGT": "Fyn (UniProt P06241)", "phosphorylation enrichment": 0.531}
{"CHAIN": "AGREIYESDKC [TTN_Y4424]", "TGT": "Fyn (UniProt P06241)", "phosphorylation enrichment": 0.538}
{"CHAIN": "PCLLRYLQLDF [ASB10_Y457_R453C]", "TGT": "Fyn (UniProt P06241)", "phosphorylation enrichment": 0.497}
{"CHAIN": "HESEIYGKVCY [CSRP3_Y57_C58G]", "TGT": "Fyn (UniProt P06241)", "phosphorylation enrichment": 8.66}
{"CHAIN": "FSAGTYPRMEE [SYCN_Y108_L111M]", "TGT": "Fyn (UniProt P06241)", "phosphorylation enrichment": 0.361}
{"CHAIN": "SRVNKYSTAFG [GJB3_Y16_G12R]", "TGT": "Fyn (UniProt P06241)", "phosphorylation enrichment": 0.371}
{"CHAIN": "MHDSNYVSKGS [PDGFRA_Y849]", "TGT": "Fyn (UniProt P06241)", "phosphorylation enrichment": 0.535}
{"CHAIN": "GGSSPYSRRLA [CDK13_Y351_P356A]", "TGT": "Fyn (UniProt P06241)", "phosphorylation enrichment": 0.426}
{"CHAIN": "RVEDAYILTCN [CCT6A_Y229]", "TGT": "Fyn (UniProt P06241)", "phosphorylation enrichment": 0.839}
{"CHAIN": "GIVEDYRPPVY [ACVRL1_Y421_F425V]", "TGT": "Fyn (UniProt P06241)", "phosphorylation enrichment": 0.406}
{"CHAIN": "TRVMEYISCLD [CLTCL1_Y1043_R1046C]", "TGT": "Fyn (UniProt P06241)", "phosphorylation enrichment": 0.521}
{"CHAIN": "CTLNVYRQLHN [LUZP1_Y1036_S1034N]", "TGT": "Fyn (UniProt P06241)", "phosphorylation enrichment": 0.459}
{"CHAIN": "VGTTAYVAPEA [IRAK4_Y354_M355V]", "TGT": "Fyn (UniProt P06241)", "phosphorylation enrichment": 0.392}
{"CHAIN": "FASALYGQRRS [FGF11_Y162_R163G_YF]", "TGT": "Fyn (UniProt P06241)", "phosphorylation enrichment": 0.444}
{"CHAIN": "KNITEYCRDLI [RECQL_Y492]", "TGT": "Fyn (UniProt P06241)", "phosphorylation enrichment": 0.477}
{"CHAIN": "IRSGIYFKPES [L2HGDH_Y102_H98R_YF]", "TGT": "Fyn (UniProt P06241)", "phosphorylation enrichment": 0.768}
{"CHAIN": "CKQGKYLNWDA [ATM_Y54_S49C]", "TGT": "Fyn (UniProt P06241)", "phosphorylation enrichment": 0.418}
{"CHAIN": "HILRVYSGVLP [PCNX4_Y999_G1000S]", "TGT": "Fyn (UniProt P06241)", "phosphorylation enrichment": 1.1}
{"CHAIN": "CPASVYTKRCS [CPT2_Y508_R503C]", "TGT": "Fyn (UniProt P06241)", "phosphorylation enrichment": 0.434}
{"CHAIN": "KPLMPYMRYSR [SMARCE1_Y73]", "TGT": "Fyn (UniProt P06241)", "phosphorylation enrichment": 0.432}
{"CHAIN": "SYPREYGSQEG [RBM10_Y48]", "TGT": "Fyn (UniProt P06241)", "phosphorylation enrichment": 0.424}
{"CHAIN": "LLVVVYKFRCF [PSEN1_Y154_L153V_YF]", "TGT": "Fyn (UniProt P06241)", "phosphorylation enrichment": 0.359}
{"CHAIN": "FRPPYYHRDCM [HGD_Y334_N337D]", "TGT": "Fyn (UniProt P06241)", "phosphorylation enrichment": 0.417}
{"CHAIN": "KRAIGYFSATS [FAM120A_Y327_YF]", "TGT": "Fyn (UniProt P06241)", "phosphorylation enrichment": 0.382}
{"CHAIN": "AGREEYSAMRD [KRAS_Y64_Q61R]", "TGT": "Fyn (UniProt P06241)", "phosphorylation enrichment": 0.479}
{"CHAIN": "SPFEVYVDKSQ [FLNA_Y373]", "TGT": "Fyn (UniProt P06241)", "phosphorylation enrichment": 0.477}
{"CHAIN": "KKLHKYNTQFQ [PIK3R1_Y452_E451K]", "TGT": "Fyn (UniProt P06241)", "phosphorylation enrichment": 0.355}
{"CHAIN": "FFIMMYTGSNV [DNAJC13_Y1131]", "TGT": "Fyn (UniProt P06241)", "phosphorylation enrichment": 0.433}
{"CHAIN": "FSTSPYLLEAA [BRIP1_Y921_YF]", "TGT": "Fyn (UniProt P06241)", "phosphorylation enrichment": 3.49}
{"CHAIN": "FLTSSYINIST [IL23R_Y178_YF]", "TGT": "Fyn (UniProt P06241)", "phosphorylation enrichment": 0.48}
{"CHAIN": "GRPMDYHVSIT [OTOF_Y254_Q255H]", "TGT": "Fyn (UniProt P06241)", "phosphorylation enrichment": 0.456}
{"CHAIN": "FQEPVYSVAFS [TBL1X_Y509_H504Y_YF]", "TGT": "Fyn (UniProt P06241)", "phosphorylation enrichment": 11.8}
{"CHAIN": "SGGGSYGSGGG [KRT1_Y539]", "TGT": "Fyn (UniProt P06241)", "phosphorylation enrichment": 0.412}
{"CHAIN": "MSSLPYMKMIF [SLC4A11_Y853]", "TGT": "Fyn (UniProt P06241)", "phosphorylation enrichment": 0.421}
{"CHAIN": "EHAGEYGAEAL [HBA1_Y25_A20E]", "TGT": "Fyn (UniProt P06241)", "phosphorylation enrichment": 0.489}
{"CHAIN": "CTTIHYNYMGN [TP53_Y234_C238G]", "TGT": "Fyn (UniProt P06241)", "phosphorylation enrichment": 0.402}
{"CHAIN": "FQLPFYNTVPS [BMPR1A_Y458_M460T_YF]", "TGT": "Fyn (UniProt P06241)", "phosphorylation enrichment": 0.465}
{"CHAIN": "DYNPNYCFAGK [ALK_Y1096]", "TGT": "Fyn (UniProt P06241)", "phosphorylation enrichment": 0.607}
{"CHAIN": "RFLRGYEQDAY [HLA-A_Y137_R138E]", "TGT": "Fyn (UniProt P06241)", "phosphorylation enrichment": 0.525}
{"CHAIN": "ETRWNYHFEVV [GCNT3_Y267_K266N]", "TGT": "Fyn (UniProt P06241)", "phosphorylation enrichment": 0.449}
{"CHAIN": "EDSEFYKAFEE [CASQ2_Y179_YF]", "TGT": "Fyn (UniProt P06241)", "phosphorylation enrichment": 0.442}
{"CHAIN": "TDGNGYISFNE [LCP1_Y28]", "TGT": "Fyn (UniProt P06241)", "phosphorylation enrichment": 0.454}
{"CHAIN": "HELFVYKCDEN [DOCK3_Y548_YF]", "TGT": "Fyn (UniProt P06241)", "phosphorylation enrichment": 1.54}
{"CHAIN": "RGDSAYHSQRH [ERBB3_Y1132]", "TGT": "Fyn (UniProt P06241)", "phosphorylation enrichment": 0.455}
{"CHAIN": "KSRQIYDAFIM [GRK3_Y109_R104K_YF]", "TGT": "Fyn (UniProt P06241)", "phosphorylation enrichment": 13}
